The entries below come with measured GI% values attached.
System: UO-31 (renal cancer)
ASSAY: NCI 60-cell one-dose antiproliferative screen
Assay type: cell-based, human
CONDITIONS: one dose 10 μM
Just the number please, in %, no unit attached.

Consider the reported GI% for these compounds:
ENTRY_SMILES: COc1ccc(-c2nnc3ccc(NN=Cc4ccc(C)cc4)nn23)cc1
GI%, %: 66.50

ENTRY_SMILES: CN(C)c1ccc(C=NNc2ccc3nnc(-c4ccccc4)n3n2)cc1
GI%, %: 18.89

Task: I would be grateful if you could share the reported GI% for COc1ccc(-c2nnc3ccc(NN=Cc4ccc(O)cc4)nn23)cc1 .
Output: 69.74

Task: Param item = Cc1ccc(-c2nnc3ccc(NN=Cc4ccccc4)nn23)cc1 ; retrieve measured GI%.
Output: 15.52

----------
System: MDA-MB-231/ATCC (breast cancer)
ASSAY: NCI 60-cell one-dose antiproliferative screen
Assay type: cell-based, human
CONDITIONS: one dose 10 μM

ENTRY_SMILES: O=[N+]([O-])c1ccc(C=NNc2ccc3nnc(-c4ccccc4)n3n2)cc1
GI%: — (— GI% is below 15%)
--
ENTRY_SMILES: COc1ccc(-c2nnc3ccc(NN=Cc4ccc(C)cc4)nn23)cc1
GI%: 34.65%
--
ENTRY_SMILES: Cc1ccc(-c2nnc3ccc(NN=Cc4ccccc4)nn23)cc1
GI%: — (— GI% is below 15%)
--
ENTRY_SMILES: CC(=O)NNc1ccc2nnc(-c3ccccc3)n2n1
GI%: — (— GI% is below 15%)

----------
System: M14 (melanoma)
ASSAY: NCI 60-cell one-dose antiproliferative screen
Type: cell-based, human
CONDITIONS: one dose 10 μM
ATTRIBUTE_MEASURED: GI%

Reference set (8 entries):
COMPOUND: Cc1cc(C)n(-c2ccc3nnc(-c4ccccc4)n3n2)n1 [Compound 5]
GI%: — (— GI% is below 15%)
//
COMPOUND: Cc1ccc(-c2nnc3ccc(NN=Cc4ccccc4)nn23)cc1 [Compound 4d]
GI%: 32.66%
//
COMPOUND: O=[N+]([O-])c1ccc(C=NNc2ccc3nnc(-c4ccccc4)n3n2)cc1 [Compound 4b]
GI%: — (— GI% is below 15%)
//
COMPOUND: COc1ccc(-c2nnc3ccc(NN=Cc4ccc(O)cc4)nn23)cc1 [Compound 4g]
GI%: 43.64%
//
COMPOUND: COc1ccc(-c2nnc3ccc(NN=Cc4ccccc4)nn23)cc1 [Compound 4e]
GI%: — (— GI% is below 15%)
//
COMPOUND: CC(=O)NNc1ccc2nnc(-c3ccccc3)n2n1 [Compound 6a]
GI%: — (— GI% is below 15%)
//
COMPOUND: CN(C)c1ccc(C=NNc2ccc3nnc(-c4ccccc4)n3n2)cc1 [Compound 4c]
GI%: — (— GI% is below 15%)
//
COMPOUND: COc1ccc(-c2nnc3ccc(NNC(C)=O)nn23)cc1 [Compound 6b]
GI%: — (— GI% is below 15%)

Shift focus to the following entry.
Task: Which GI% is reported with M14 (melanoma) for this entry: COc1ccc(-c2nnc3ccc(NN=Cc4ccc(C)cc4)nn23)cc1 [Compound 4f] ?
Output: 16.52%

----------
System: CAKI-1 (renal cancer)
ASSAY: NCI 60-cell one-dose antiproliferative screen
Type: cell-based, human
CONDITIONS: one dose 10 μM
Please use 1.0 whenever GI% is not below 50%, and 0.0 whenever it is.

Some solved cases for reference:
ENTRY_SMILES: Cc1ccc(-c2nnc3ccc(NN=Cc4ccccc4)nn23)cc1
ASSIGNED_LABEL: 0.0
//
ENTRY_SMILES: COc1ccc(-c2nnc3ccc(NN=Cc4ccc(C)cc4)nn23)cc1
ASSIGNED_LABEL: 0.0
//
ENTRY_SMILES: COc1ccc(-c2nnc3ccc(NN=Cc4ccc(O)cc4)nn23)cc1
ASSIGNED_LABEL: 1.0
//
ENTRY_SMILES: CN(C)c1ccc(C=NNc2ccc3nnc(-c4ccccc4)n3n2)cc1
ASSIGNED_LABEL: 0.0

--- query ---
Task: Would you say Cc1cc(C)n(-c2ccc3nnc(-c4ccccc4)n3n2)n1 shows GI% at minimum 50%?
Output: 0.0

----------
Tested on: 786-0 (renal cancer)
ASSAY: NCI 60-cell one-dose antiproliferative screen
Assay type: cell-based, human
CONDITIONS: one dose 10 μM
ATTRIBUTE_MEASURED: GI%

Please review the entries below; each comes with its answer.
ENTRY_SMILES: COc1ccc(-c2nnc3ccc(NN=Cc4ccc(C)cc4)nn23)cc1
GI%: 43.09%

ENTRY_SMILES: COc1ccc(-c2nnc3ccc(NN=Cc4ccc(O)cc4)nn23)cc1
GI%: 77.10%

ENTRY_SMILES: Cc1ccc(-c2nnc3ccc(NN=Cc4ccccc4)nn23)cc1
GI%: — (— GI% is below 15%)

ENTRY_SMILES: O=[N+]([O-])c1ccc(C=NNc2ccc3nnc(-c4ccccc4)n3n2)cc1
GI%: — (— GI% is below 15%)

ENTRY_SMILES: CC(=O)NNc1ccc2nnc(-c3ccccc3)n2n1
GI%: — (— GI% is below 15%)

ENTRY_SMILES: CN(C)c1ccc(C=NNc2ccc3nnc(-c4ccccc4)n3n2)cc1
GI%: 18.27%

Task: For the compound shown here, COc1ccc(-c2nnc3ccc(NN=Cc4ccccc4)nn23)cc1 , give the reported GI%.
Output: — (— GI% is below 15%)

Task: Which GI% value is on record for COc1ccc(-c2nnc3ccc(NNC(C)=O)nn23)cc1 ?
Output: — (— GI% is below 15%)

Task: # GI% lookup, item Cc1cc(C)n(-c2ccc3nnc(-c4ccccc4)n3n2)n1
Output: — (— GI% is below 15%)

----------
Tested on: SN12C (renal cancer)
ASSAY: NCI 60-cell one-dose antiproliferative screen
Format: cell-based, human
CONDITIONS: one dose 10 μM
ATTRIBUTE_MEASURED: GI% (%)
The response must be a number in % with no trailing unit.

ENTRY_SMILES: COc1ccc(-c2nnc3ccc(NN=Cc4ccc(C)cc4)nn23)cc1
VALUE_REPORTED: 23.07

Task: Give recorded GI% with SN12C (renal cancer) for the following molecule: COc1ccc(-c2nnc3ccc(NN=Cc4ccc(O)cc4)nn23)cc1
Output: 57.71

----------
ASSAY: MTT cytotoxicity assay, MCF10a
Assay type: cell-based
CONDITIONS: human, MCF10a normal mammary epithelial cells
Some molecules, each annotated with its measured IC50 at 72 h.
Give the value, in units of µM, as a plain number.

MOLECULE: COc1ccc(-c2nnc3ccc(NN=Cc4ccc(O)cc4)nn23)cc1
UNIT_TAG: µM
IC50 at 72 h: 10.7

Please find the next molecule below.
Task: Any idea what IC50 at 72 h was measured for CN[C@@H]1C[C@H]2O[C@@](C)([C@@H]1OC)n1c3ccccc3c3c4c(c5c6ccccc6n2c5c31)C(=O)NC4 [Staurosporine, reference compound] ?
Output: 18.3

----------
System: SNB-75 (CNS cancer)
ASSAY: NCI 60-cell one-dose antiproliferative screen
Assay type: cell-based, human
CONDITIONS: one dose 10 μM
ATTRIBUTE_MEASURED: GI%

// solved cases for GI% follow
COMPOUND: COc1ccc(-c2nnc3ccc(NN=Cc4ccccc4)nn23)cc1 [Compound 4e]
MEASURED_TARGET: SNB-75 (CNS cancer)
GI%: 62.97%
--
COMPOUND: O=[N+]([O-])c1ccc(C=NNc2ccc3nnc(-c4ccccc4)n3n2)cc1 [Compound 4b]
MEASURED_TARGET: SNB-75 (CNS cancer)
GI%: — (— GI% is below 15%)
--
COMPOUND: Cc1ccc(-c2nnc3ccc(NN=Cc4ccccc4)nn23)cc1 [Compound 4d]
MEASURED_TARGET: SNB-75 (CNS cancer)
GI%: >100%
--
COMPOUND: CC(=O)NNc1ccc2nnc(-c3ccccc3)n2n1 [Compound 6a]
MEASURED_TARGET: SNB-75 (CNS cancer)
GI%: — (— GI% is below 15%)
--
COMPOUND: COc1ccc(-c2nnc3ccc(NN=Cc4ccc(O)cc4)nn23)cc1 [Compound 4g]
MEASURED_TARGET: SNB-75 (CNS cancer)
GI%: 46.38%
--
COMPOUND: COc1ccc(-c2nnc3ccc(NNC(C)=O)nn23)cc1 [Compound 6b]
MEASURED_TARGET: SNB-75 (CNS cancer)
GI%: — (— GI% is below 15%)

Task: Identify the measured GI% of CN(C)c1ccc(C=NNc2ccc3nnc(-c4ccccc4)n3n2)cc1 [Compound 4c] for SNB-75 (CNS cancer).
Output: 65.40%

Task: Find GI% (SNB-75 (CNS cancer)) for the entry Cc1cc(C)n(-c2ccc3nnc(-c4ccccc4)n3n2)n1 [Compound 5]
Output: — (— GI% is below 15%)

----------
System: HOP-92 (NSC lung cancer)
ASSAY: NCI 60-cell one-dose antiproliferative screen
Format: cell-based, human
CONDITIONS: one dose 10 μM

ENTRY_SMILES: O=[N+]([O-])c1ccc(C=NNc2ccc3nnc(-c4ccccc4)n3n2)cc1
GI%: — (— GI% is below 15%)
--
ENTRY_SMILES: COc1ccc(-c2nnc3ccc(NNC(C)=O)nn23)cc1
GI%: — (— GI% is below 15%)
--
ENTRY_SMILES: CC(=O)NNc1ccc2nnc(-c3ccccc3)n2n1
GI%: — (— GI% is below 15%)
--
ENTRY_SMILES: Cc1cc(C)n(-c2ccc3nnc(-c4ccccc4)n3n2)n1
GI%: — (— GI% is below 15%)
